target: human MR (mineralocorticoid receptor) (Homo sapiens, UniProt P08235); assay: MR competition binding assay (HEK293 cell lysate); settings: 0.25 nM 3H-aldosterone, 293-MR lysate
Sequence (P08235 whole entry): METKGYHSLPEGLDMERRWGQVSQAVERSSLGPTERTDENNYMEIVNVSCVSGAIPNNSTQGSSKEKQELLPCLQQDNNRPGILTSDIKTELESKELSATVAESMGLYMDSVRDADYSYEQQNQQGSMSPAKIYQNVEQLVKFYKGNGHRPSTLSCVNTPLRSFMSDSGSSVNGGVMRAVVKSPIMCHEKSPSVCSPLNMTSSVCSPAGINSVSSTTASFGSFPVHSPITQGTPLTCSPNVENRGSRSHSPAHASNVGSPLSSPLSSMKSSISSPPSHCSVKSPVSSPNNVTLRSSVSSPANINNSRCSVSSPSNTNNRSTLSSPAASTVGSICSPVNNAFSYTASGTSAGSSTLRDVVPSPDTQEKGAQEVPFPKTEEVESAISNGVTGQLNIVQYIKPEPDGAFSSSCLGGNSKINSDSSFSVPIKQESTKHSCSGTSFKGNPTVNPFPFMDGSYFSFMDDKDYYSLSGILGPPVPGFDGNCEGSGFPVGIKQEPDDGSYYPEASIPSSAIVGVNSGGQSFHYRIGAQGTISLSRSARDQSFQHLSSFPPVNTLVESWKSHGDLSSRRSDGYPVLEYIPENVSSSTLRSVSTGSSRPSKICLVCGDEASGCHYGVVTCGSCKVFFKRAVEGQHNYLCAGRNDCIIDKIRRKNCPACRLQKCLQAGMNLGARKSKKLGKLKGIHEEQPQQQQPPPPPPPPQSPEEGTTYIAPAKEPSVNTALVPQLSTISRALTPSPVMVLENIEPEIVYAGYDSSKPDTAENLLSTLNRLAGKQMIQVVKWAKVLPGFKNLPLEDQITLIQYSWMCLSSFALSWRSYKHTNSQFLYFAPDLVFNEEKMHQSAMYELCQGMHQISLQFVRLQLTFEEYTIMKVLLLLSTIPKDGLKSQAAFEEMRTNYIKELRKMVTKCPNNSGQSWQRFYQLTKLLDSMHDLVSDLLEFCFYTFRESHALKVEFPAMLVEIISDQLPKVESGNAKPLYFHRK
pKi: −log10 of the molar value.
reported.endpoint: pKi

Use these answered entries as a reference point.
CSc1ccc(-c2cn(C(C)C)c3cc(NS(C)(=O)=O)ccc23)cc1 [Example 83]; 6.00 to 6.30
CC(C)n1cc(-c2ccc(C(N)=O)cc2)c2ccc(NS(C)(=O)=O)cc21 [Example 87]; < 6.00
CC(C)n1cc(-c2ccc(Cl)cc2)c2ccc(NS(C)(=O)=O)cc21 [Example 36]; < 6.00

Query: Need pKi of CC(C)n1cc(-c2ccc(C#N)n2C)c2ccc(NS(C)(=O)=O)cc21 [Example 78] , thanks.
Reply: 6.30 to 7.00

Cited source: patent US7932284B2
